test: Antagonist activity at CRTH2 in human blood cells assessed as inhibition of PGD2-induced eosinophil cell shape change after 10 mins by flow cytometry
Lab note: anything with IC50 below 0.2 µM is marked Criterion met; values at 0.2 µM or higher are marked Criterion not met.

*Q* Field: below-cutoff. Rule: recorded IC50 strictly less than 0.2 µM. Subject: CCCS(=O)(=O)c1ccc(Cl)c(C#Cc2cc(Cl)ccc2OCC(=O)O)c1
*A* Criterion met

*Q* Field: below-cutoff. Rule: recorded IC50 strictly less than 0.2 µM. Subject: Cc1ccc(S(=O)(=O)CC(C)C)cc1C#Cc1cc(Cl)ccc1OCC(=O)O
*A* Criterion met

*Q* Field: below-cutoff. Rule: recorded IC50 strictly less than 0.2 µM. Subject: CCCS(=O)(=O)c1cccc(C#Cc2cc(Cl)ccc2OCC(=O)O)c1
*A* Criterion not met

*Q* Field: below-cutoff. Rule: recorded IC50 strictly less than 0.2 µM. Subject: CCCc1ccc(S(C)(=O)=O)cc1C#Cc1cc(Cl)ccc1OCC(=O)O
*A* Criterion not met

*Q* Field: below-cutoff. Rule: recorded IC50 strictly less than 0.2 µM. Subject: Cc1ccc(S(=O)(=O)N(C)C)cc1C#Cc1cc(Cl)ccc1OCC(=O)O
*A* Criterion met

*Q* Field: below-cutoff. Rule: recorded IC50 strictly less than 0.2 µM. Subject: CCNS(=O)(=O)c1ccc(C)c(C#Cc2cc(Cl)ccc2OCC(=O)O)c1
*A* Criterion met

*Q* Field: below-cutoff. Rule: recorded IC50 strictly less than 0.2 µM. Subject: Cc1ccc(S(=O)(=O)N(C)C(C)C)cc1C#Cc1cc(Cl)ccc1OCC(=O)O
*A* Criterion met

*Q* Field: below-cutoff. Rule: recorded IC50 strictly less than 0.2 µM. Subject: CC(C)c1ccc(S(C)(=O)=O)cc1C#Cc1cc(Cl)ccc1OCC(=O)O
*A* Criterion not met

*Q* Field: below-cutoff. Rule: recorded IC50 strictly less than 0.2 µM. Subject: CCCS(=O)(=O)c1ccc(F)c(C#Cc2cc(Cl)ccc2OCC(=O)O)c1
*A* Criterion met

*Q* Field: below-cutoff. Rule: recorded IC50 strictly less than 0.2 µM. Subject: O=C(O)COc1ccc(Cl)cc1C#Cc1cccc(Cl)c1
*A* Criterion not met

*Q* Field: below-cutoff. Rule: recorded IC50 strictly less than 0.2 µM. Subject: CN(C)S(=O)(=O)c1cncc(C#Cc2cc(Cl)ccc2OCC(=O)O)c1
*A* Criterion not met

*Q* Field: below-cutoff. Rule: recorded IC50 strictly less than 0.2 µM. Subject: COCCN(C)S(=O)(=O)c1ccc(C)c(C#Cc2cc(Cl)ccc2OCC(=O)O)c1
*A* Criterion met

*Q* Field: below-cutoff. Rule: recorded IC50 strictly less than 0.2 µM. Subject: Cc1ccc(S(C)(=O)=O)cc1C#Cc1cc(Cl)ccc1OCC(=O)O
*A* Criterion met

*Q* Field: below-cutoff. Rule: recorded IC50 strictly less than 0.2 µM. Subject: O=C(O)COc1ccc(Cl)cc1C#Cc1ccc2c(c1)S(=O)(=O)c1ccccc1-2
*A* Criterion not met

*Q* Field: below-cutoff. Rule: recorded IC50 strictly less than 0.2 µM. Subject: Cc1ccc(S(=O)(=O)N2CCCCC2C)cc1C#Cc1cc(Cl)ccc1OCC(=O)O (stereo not drawn)
*A* Criterion not met

*Q* Field: below-cutoff. Rule: recorded IC50 strictly less than 0.2 µM. Subject: CC(C)S(=O)(=O)c1ccc(F)c(C#Cc2cc(Cl)ccc2OCC(=O)O)c1
*A* Criterion met

*Q* Field: below-cutoff. Rule: recorded IC50 strictly less than 0.2 µM. Subject: O=C(O)COc1ccc(Cl)cc1C#Cc1ccc(CO)cc1F
*A* Criterion not met

*Q* Field: below-cutoff. Rule: recorded IC50 strictly less than 0.2 µM. Subject: CS(=O)(=O)c1ccc(F)c(C#Cc2cc(Cl)ccc2OCC(=O)O)c1
*A* Criterion met

*Q* Field: below-cutoff. Rule: recorded IC50 strictly less than 0.2 µM. Subject: Cc1ccc(S(=O)(=O)NC(C)C)cc1C#Cc1cc(Cl)ccc1OCC(=O)O
*A* Criterion not met

*Q* Field: below-cutoff. Rule: recorded IC50 strictly less than 0.2 µM. Subject: CCCS(=O)(=O)c1ccc(C)c(C#Cc2cc(Cl)ccc2OCC(=O)O)c1
*A* Criterion met

*Q* Field: below-cutoff. Rule: recorded IC50 strictly less than 0.2 µM. Subject: Cc1ccc(S(=O)(=O)c2ccccc2)cc1C#Cc1cc(Cl)ccc1OCC(=O)O
*A* Criterion not met

*Q* Field: below-cutoff. Rule: recorded IC50 strictly less than 0.2 µM. Subject: O=C(O)COc1ccc(Cl)cc1C#Cc1cccc(S(=O)(=O)CCO)c1
*A* Criterion not met

*Q* Field: below-cutoff. Rule: recorded IC50 strictly less than 0.2 µM. Subject: Cc1ccc(S(=O)(=O)C(C)C)cc1C#Cc1cc(Cl)ccc1OCC(=O)O
*A* Criterion met

*Q* Field: below-cutoff. Rule: recorded IC50 strictly less than 0.2 µM. Subject: COCCNS(=O)(=O)c1ccc(C)c(C#Cc2cc(Cl)ccc2OCC(=O)O)c1
*A* Criterion met

*Q* Field: below-cutoff. Rule: recorded IC50 strictly less than 0.2 µM. Subject: CS(=O)(=O)c1ccc(Cl)c(C#Cc2cc(Cl)ccc2OCC(=O)O)c1
*A* Criterion met

*Q* Field: below-cutoff. Rule: recorded IC50 strictly less than 0.2 µM. Subject: CCN(Cc1cc(-c2ccc(OC)cn2)ccc1-c1cc(CC(=O)O)ccc1OC)C(=O)C1CC1
*A* Criterion met

*Q* Field: below-cutoff. Rule: recorded IC50 strictly less than 0.2 µM. Subject: CC(C)S(=O)(=O)c1ccc(Cl)c(C#Cc2cc(Cl)ccc2OCC(=O)O)c1
*A* Criterion met

*Q* Field: below-cutoff. Rule: recorded IC50 strictly less than 0.2 µM. Subject: Cc1ccc(S(=O)(=O)CCCO)cc1C#Cc1cc(Cl)ccc1OCC(=O)O
*A* Criterion not met
